system: SK-MEL-28 melanoma; test: NCI tumour cell line growth inhibition, 48 h
Consider the following compounds; for each one, report its TGI.

Oc1ccc2ccccc2c1/C=N\Nc1ccccn1
> 100 µM
Cc1c2c(nn1-c1ccc(S/N=C3\SCC(=O)CN3c3ccccc3)cc1)-c1ccccc1CC2
> 50 µM
CCP(=O)(CC)C(Cl)(Cl)C(=O)NC
> 100 µM
NC12c3c4cccc3Oc3cccc(c31)Oc1cccc(c12)O4
> 50 µM
COc1ccc2c(CNCCCCO)cc3cc4c(cc3c2c1)OCO4
11 µM
N=C(/C=C/c1ccc(-c2cn3cc(/C=C/C(=N)N4CCOCC4)ccc3n2)cc1)N1CCOCC1
> 100 µM

In the following, a different compound is considered.
// fetch TGI; item: CCCCc1cc2c(cc1O)CCC1C2CC[C@@]2(C)C1CC[C@@H]2O (some centres not stated) ; system: SK-MEL-28 melanoma
45.1 µM
